TARGET DESC: KRAS G12D (Homo sapiens, UniProt P01116, G12D)
Construct: AsPc-1-KRAS (G12D)-HiBit-KI cell (Pharmaron); host or cells: AsPc-1-KRAS (G12D)-HiBit-KI cells (HiBiT knock-in at the endogenous KRAS locus)
Sequence (P01116 1-188 isoform P01116-2 G12D): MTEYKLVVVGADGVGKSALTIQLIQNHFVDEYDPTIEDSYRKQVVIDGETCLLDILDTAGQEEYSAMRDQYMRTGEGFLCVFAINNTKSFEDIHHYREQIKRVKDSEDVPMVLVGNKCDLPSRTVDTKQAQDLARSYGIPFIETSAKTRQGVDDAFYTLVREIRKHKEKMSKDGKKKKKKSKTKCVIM
ASSAY REMARKS: KRAS G12D HiBit assay
Assay type: cell-based
CONDITIONS USED: AsPc-1-KRAS (G12D)-HiBit-KI cell, compound treatment for 24 hours, absolute DC50; class symbols
# reported DC50; entries follow

Query for KRAS G12D (Homo sapiens, UniProt P01116, G12D): what DC50 does the record show for CCc1c(F)ccc2cc(O)cc(-c3ncc4c(N5CCCCC5)nc(OC[C@@]56CCCN5[C@H](CN5CCC(CN7CCC(c8ccc9c(c8)n(C)c(=O)n9C8CCC(=O)NC8=O)CC7)CC5)CC6)nc4c3F)c12 (some centres unmarked) [Compound 379] ?
< 100 nM

C#Cc1c(F)ccc2cccc(-c3ncc4c(N5CCC[C@@](C)(O)C5)nc(OC[C@@]56CCCN5[C@H](COC(=O)N5CCC(N7CCC(c8ccc9c(c8)n(C)c(=O)n9C8CCC(=O)NC8=O)CC7)CC5)CC6)nc4c3F)c12 (some centres unmarked) [Compound 128] ?
> 300 nM

Data origin, for the record: patent US12599672B2
